Reference source for all entries: patent US7074789B2

target: UniProt:P17948
Sequence (P17948 27-1338, species assumed): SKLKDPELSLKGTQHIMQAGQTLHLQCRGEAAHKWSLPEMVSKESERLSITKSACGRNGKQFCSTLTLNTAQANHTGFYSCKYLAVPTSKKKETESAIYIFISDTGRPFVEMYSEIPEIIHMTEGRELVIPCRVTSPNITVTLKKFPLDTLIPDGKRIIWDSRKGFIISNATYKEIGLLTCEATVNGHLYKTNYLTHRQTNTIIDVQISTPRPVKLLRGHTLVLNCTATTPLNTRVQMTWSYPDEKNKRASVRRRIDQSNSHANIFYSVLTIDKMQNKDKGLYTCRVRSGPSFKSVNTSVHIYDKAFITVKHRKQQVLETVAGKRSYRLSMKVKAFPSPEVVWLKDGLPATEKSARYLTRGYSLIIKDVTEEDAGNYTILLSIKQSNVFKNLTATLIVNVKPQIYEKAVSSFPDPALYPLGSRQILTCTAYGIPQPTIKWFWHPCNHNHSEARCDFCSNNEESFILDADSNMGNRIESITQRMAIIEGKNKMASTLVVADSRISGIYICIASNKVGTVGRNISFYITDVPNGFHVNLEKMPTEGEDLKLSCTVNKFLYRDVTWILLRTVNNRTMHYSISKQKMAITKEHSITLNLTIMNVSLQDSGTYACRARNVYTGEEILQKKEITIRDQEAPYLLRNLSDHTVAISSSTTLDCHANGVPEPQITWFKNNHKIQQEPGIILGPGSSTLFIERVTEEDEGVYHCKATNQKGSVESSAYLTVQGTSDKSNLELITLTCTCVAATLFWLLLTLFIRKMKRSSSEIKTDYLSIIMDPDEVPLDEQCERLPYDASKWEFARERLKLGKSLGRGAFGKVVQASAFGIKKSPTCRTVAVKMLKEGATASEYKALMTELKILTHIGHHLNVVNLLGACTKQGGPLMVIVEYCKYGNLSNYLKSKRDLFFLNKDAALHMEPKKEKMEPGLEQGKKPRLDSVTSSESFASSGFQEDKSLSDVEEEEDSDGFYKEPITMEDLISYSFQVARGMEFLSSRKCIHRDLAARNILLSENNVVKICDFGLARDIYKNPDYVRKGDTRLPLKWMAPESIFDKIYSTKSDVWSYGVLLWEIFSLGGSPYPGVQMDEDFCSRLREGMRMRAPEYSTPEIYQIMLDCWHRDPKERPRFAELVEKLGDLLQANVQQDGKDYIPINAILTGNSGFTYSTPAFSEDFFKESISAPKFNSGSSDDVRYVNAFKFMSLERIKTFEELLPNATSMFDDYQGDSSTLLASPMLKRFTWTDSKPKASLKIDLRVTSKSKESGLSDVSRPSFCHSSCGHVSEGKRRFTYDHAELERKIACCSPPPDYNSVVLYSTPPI
pIC50: −log10 of the molar value.
value_kind: pIC50

# example entries with known answers
[[record]]
compound = "COc1cc(Nc2ncnc(-n3c(NC4CCCc5ccccc54)nc4ccccc43)n2)cc(OC)c1OC (stereo not shown) [Compound 587]"
value_observed = "5.34 to 6.12"

[[record]]
compound = "OCc1ccc(Nc2ncnc(Nc3cc(-c4ccco4)n[nH]3)n2)cc1 [Compound 430]"
value_observed = "5.16 to 5.94"

[[record]]
compound = "COc1cc(Nc2ncnc(Nc3ccc(Br)c4ccccc34)n2)cc(OC)c1OC [Compound 613]"
value_observed = "< 5.03"


Form field: reported pIC50 of Nc1nc2ccccc2n1-c1ncnc(Nc2cccc(-c3cnco3)c2)n1 [Compound 439]
> 5.97

Then what about the compound COc1cc(Nc2ncnc(Nc3cc(-c4ccc(Cl)cc4)n[nH]3)n2)cc(OC)c1OC [Compound 367] ?
5.28 to 6.05

Then what about the compound COc1cc(Nc2ncnc(N3CCc4cc([N+](=O)[O-])ccc43)n2)cc(OC)c1OC [Compound 187] ?
< 4.97

Then what about the compound COc1cc(Nc2ncnc(N(CC(=O)O)c3ccc4c(c3)OCO4)n2)cc(OC)c1OC [Compound 319] ?
< 5.01

---

Molecular target: AKT (Homo sapiens, UniProt Q9Y243)
Construct: Kinases are expressed as either kinase domains or full length constructs; made in house
Sequence (Q9Y243 whole entry, the tested form may be a part): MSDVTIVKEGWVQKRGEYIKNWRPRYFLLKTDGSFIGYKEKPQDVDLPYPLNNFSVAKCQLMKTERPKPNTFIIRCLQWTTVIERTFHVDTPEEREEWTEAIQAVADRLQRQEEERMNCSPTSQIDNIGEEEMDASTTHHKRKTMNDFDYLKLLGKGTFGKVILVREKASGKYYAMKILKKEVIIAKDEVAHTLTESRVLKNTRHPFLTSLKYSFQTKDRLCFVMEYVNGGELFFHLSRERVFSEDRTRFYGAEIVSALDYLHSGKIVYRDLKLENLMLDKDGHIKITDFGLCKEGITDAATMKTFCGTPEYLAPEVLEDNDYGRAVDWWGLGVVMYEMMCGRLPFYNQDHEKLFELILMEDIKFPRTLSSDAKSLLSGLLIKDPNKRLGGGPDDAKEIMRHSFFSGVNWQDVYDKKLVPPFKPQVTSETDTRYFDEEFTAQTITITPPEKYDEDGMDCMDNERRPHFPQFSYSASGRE
Assay: Kinase inhibition assay (33P transfer), AKT
Type: biochemical
Settings: Table 2, kinase inhibition class; read-out: AKT3-1
Source text: The inhibitor compounds described herein are screened in the following manner. […] Kinases are expressed as either kinase domains or full length constructs fused to glutathione S-transferase (GST) or polyHistidine tagged fusion proteins in either E. colior Baculovirus-High Five expression systems. […]
value_kind: IC50

[[record]]
molecule = "COc1cc(Nc2ncnc(-n3ccnc3)n2)cc(OC)c1OC [Compound 183]"
value_observed = "> 13.7 µM"

[[record]]
molecule = "COc1cc(Nc2ncnc(-c3ccccc3)n2)cc(OC)c1OC [Compound 970]"
value_observed = "> 13.3 µM"

[[record]]
molecule = "COc1cc(Nc2ncnc(Nc3ccc(C(N)=O)cc3)n2)cc(OC)c1OC [Compound 33]"
value_observed = "> 11.4 µM"

[[record]]
molecule = "c1csc(-c2ncnc(Nc3ccc4c(c3)OCO4)n2)c1 [Compound 1072]"
value_observed = "> 15.1 µM"

[[record]]
molecule = "COc1cc(Nc2ncnc(N(C)c3ccc(F)c(Cl)c3)n2)cc(OC)c1OC [Compound 710]"
value_observed = "> 10.7 µM"


Form field: reported IC50 of COc1cccc(-c2ncnc(Nc3cc(OC)c(OC)c(OC)c3)n2)c1 [Compound 232]
> 12.2 µM

Then what about the molecule COc1cc(Nc2ncnc(-n3c(NCCc4ccccc4)nc4ccccc43)n2)cc(OC)c1OC [Compound 509] ?
> 9.04 µM

Then what about the molecule COc1cc(Nc2ncnc(-n3c(NCc4ccc(OC(F)(F)F)cc4)nc4ccccc43)n2)cc(OC)c1OC [Compound 571] ?
> 7.93 µM

Then what about the molecule NC(=O)c1ccc(Nc2ncnc(-n3c(N)nc4ccccc43)n2)cc1 [Compound 396] ?
6.93 to 10.1 µM

Then what about the molecule COc1cccc(Nc2ncnc(-c3cccs3)n2)n1 [Compound 362] ?
> 15.8 µM

---

target: AKT (Homo sapiens, UniProt Q9Y243); construct: Kinases are expressed as either kinase domains or full length constructs; made in house; test: Kinase inhibition assay (33P transfer), AKT; assay type: biochemical; conditions: Table 2, kinase inhibition class; read-out: AKT3-1
value_kind: IC50

[[record]]
compound = "COc1cc(Nc2ncnc(-c3cccs3)n2)cc(OC)c1OC"
value_observed = "> 13.1 µM"

[[record]]
compound = "COc1ccc(Nc2ncnc(Nc3cc(OC)c(OC)c(OC)c3)n2)cc1OCCN1CCOCC1"
value_observed = "> 8.78 µM"

[[record]]
compound = "Fc1ccc(Nc2ncnc(Nc3ccc4cn[nH]c4c3)n2)cc1Cl"
value_observed = "> 12.6 µM"


Form field: reported IC50 of `COc1cc(Nc2ncnc(Nc3ccc(C(=O)O)cc3)n2)cc(OC)c1OC`
> 11.3 µM

Then what about the compound `COc1cc(Nc2ncnc(Nc3ccc(Br)c(Cl)c3)n2)cc(OC)c1OC` ?
> 9.64 µM

Then what about the compound `CC(=O)NCc1ccc(Nc2ncnc(Nc3cc(-c4ccco4)n[nH]3)n2)cc1` ?
> 11.5 µM

Then what about the compound `COC(=O)Cc1cccc(Nc2ncnc(-n3c(NCc4ccccc4)nc4ccccc43)n2)c1` ?
> 9.67 µM

Then what about the compound `Cc1ccc(Nc2ncnc(Nc3cccc(CC(=O)O)c3)n2)cc1O` ?
> 12.8 µM

Then what about the compound `Cc1ccc2c(c1)CCCN2c1ncnc(Nc2cccc(Cl)c2C)n1` ?
1.09 to 6.56 µM

Then what about the compound COc1ccc(Nc2ncnc(NCC(O)c3ccccc3)n2)cc1OC (stereo not shown) ?
> 12.2 µM

Then what about the compound `COc1ccc(CNc2ncccc2-c2ncnc(Nc3cc(OC)c(OC)c(OC)c3)n2)nc1` ?
> 9.46 µM

Then what about the compound `COc1cc(Nc2ncnc(-n3c(NCc4ccncc4)nc4ccccc43)n2)cc(OC)c1OC` ?
> 9.29 µM

Then what about the compound `COc1cc(Nc2ncnc(-c3cccnc3NCCCN)n2)cc(OC)c1OC` ?
> 10.9 µM

Then what about the compound `COc1cc(Nc2ncnc(Nc3nc4ccccc4n3C)n2)cc(OC)c1OC` ?
> 11 µM

Then what about the compound `CCN(CC)CCOc1ccc(Nc2ncnc(Nc3cc(OC)c(OC)c(OC)c3)n2)cc1OC` ?
> 9.03 µM

---

target: AKT (Homo sapiens); construct: Kinases are expressed as either kinase domains or full length constructs; made in house; test: Kinase inhibition assay (33P transfer), AKT; type: biochemical; conditions: Table 2, kinase inhibition class; read-out: AKT3-1
IC50 values, listed per item

# example entries with known answers
[[record]]
compound = "COc1cc(Nc2ncnc(Nc3cc(-c4ccccc4)nn3C)n2)cc(OC)c1OC [Compound 394]"
value_observed = "> 10.4 µM"

[[record]]
compound = "Oc1cccc(Nc2ncnc(-c3ccccc3)n2)c1 [Compound 18]"
value_observed = "> 17 µM"

[[record]]
compound = "COc1ccc(Nc2ncnc(Nc3ccc(OCc4ccccc4)cc3)n2)cc1 [Compound 161]"
value_observed = "6.01 to 8.76 µM"

[[record]]
compound = "COc1cc(Nc2ncnc(-n3c(NCc4ccc(C)cc4C)nc4ccccc43)n2)cc(OC)c1OC [Compound 584]"
value_observed = "> 8.8 µM"

[[record]]
compound = "Oc1ccc(Nc2ncnc(-c3ccccc3)n2)cc1 [Compound 11]"
value_observed = "> 17 µM"


Now, please, on to the next compound.
Form field: reported IC50 of Nc1nc2ccccc2n1-c1ncnc(Nc2cccnc2)n1 [Compound 658]
> 14.8 µM

---

pIC50 values, listed per item
target: EGFR (Homo sapiens, UniProt P00533); construct: Kinases are expressed as either kinase domains or full length constructs; made in house; assay: Kinase inhibition assay (33P transfer), EGFR; type: biochemical; conditions: Table 2, kinase inhibition class; read-out: EGFR-1
Sequence (P00533 25-1210, species assumed): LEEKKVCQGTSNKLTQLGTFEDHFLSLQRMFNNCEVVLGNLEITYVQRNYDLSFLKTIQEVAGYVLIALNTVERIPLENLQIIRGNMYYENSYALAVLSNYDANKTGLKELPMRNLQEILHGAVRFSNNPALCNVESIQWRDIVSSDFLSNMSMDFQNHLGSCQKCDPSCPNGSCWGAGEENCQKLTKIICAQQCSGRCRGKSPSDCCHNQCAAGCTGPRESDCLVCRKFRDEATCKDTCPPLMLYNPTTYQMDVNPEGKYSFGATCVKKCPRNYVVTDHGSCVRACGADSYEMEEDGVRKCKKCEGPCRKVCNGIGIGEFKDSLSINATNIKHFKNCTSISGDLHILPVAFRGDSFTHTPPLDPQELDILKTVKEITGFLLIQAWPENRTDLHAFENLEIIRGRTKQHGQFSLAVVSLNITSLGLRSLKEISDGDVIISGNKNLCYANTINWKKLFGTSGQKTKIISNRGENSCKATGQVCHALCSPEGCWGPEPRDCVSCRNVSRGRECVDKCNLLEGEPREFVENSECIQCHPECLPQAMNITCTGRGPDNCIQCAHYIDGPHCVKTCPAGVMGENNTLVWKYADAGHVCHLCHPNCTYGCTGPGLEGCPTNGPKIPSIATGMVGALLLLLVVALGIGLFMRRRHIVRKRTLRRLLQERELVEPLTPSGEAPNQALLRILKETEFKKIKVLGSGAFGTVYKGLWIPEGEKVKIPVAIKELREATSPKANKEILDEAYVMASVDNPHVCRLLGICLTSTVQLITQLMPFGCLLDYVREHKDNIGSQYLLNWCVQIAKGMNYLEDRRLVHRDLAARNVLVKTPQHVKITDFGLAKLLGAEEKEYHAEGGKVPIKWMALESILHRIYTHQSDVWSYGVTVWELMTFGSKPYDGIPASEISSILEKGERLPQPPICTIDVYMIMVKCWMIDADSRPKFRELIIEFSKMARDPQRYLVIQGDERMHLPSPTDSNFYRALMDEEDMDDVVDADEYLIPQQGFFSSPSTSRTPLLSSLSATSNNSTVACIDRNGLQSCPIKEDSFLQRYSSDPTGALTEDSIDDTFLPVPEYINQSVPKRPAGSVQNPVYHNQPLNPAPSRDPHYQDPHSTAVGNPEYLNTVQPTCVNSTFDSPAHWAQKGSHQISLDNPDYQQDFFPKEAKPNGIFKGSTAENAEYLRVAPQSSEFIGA
pIC50: −log10 of the molar value.

# example entries with known answers
[[record]]
molecule = "COc1cc(Nc2ncnc(Nc3ccc(NC(C)=O)c(C(F)(F)F)c3)n2)cc(OC)c1OC [Compound 617]"
value_observed = "5.14 to 5.30"

[[record]]
molecule = "CCOC(=O)C(Cc1cccc(Nc2ncnc(Nc3cc(-c4ccco4)n[nH]3)n2)c1)(NC(C)=O)C(=O)OCC [Compound 481]"
value_observed = "< 5.09"

[[record]]
molecule = "NC(=O)[C@H](CO)Nc1ncnc(-n2c(=O)[nH]c3ccccc32)n1 [Compound 450]"
value_observed = "< 4.85"

[[record]]
molecule = "CCN1CCCC1CNc1ncnc(Nc2ccc(OC)c(OC)c2)n1 (centres unmarked) [Compound 781]"
value_observed = "< 4.90"

[[record]]
molecule = "COc1ccc(Nc2ncnc(Nc3ccc(OC)c(OC)c3)n2)cc1OC [Compound 63]"
value_observed = "< 4.93"

[[record]]
molecule = "COc1cc(Nc2ncnc(Nc3nc(-c4ccccc4)cs3)n2)cc(OC)c1OC [Compound 444]"
value_observed = "< 4.99"

[[record]]
molecule = "COc1cc(Nc2ncnc(-n3c(NCc4cccs4)nc4ccccc43)n2)cc(OC)c1OC [Compound 950]"
value_observed = "5.31 to 6.09"

[[record]]
molecule = "COc1ccccc1Nc1ncnc(Nc2cc(OC)c(OC)c(OC)c2)n1 [Compound 90]"
value_observed = "5.20 to 5.98"

[[record]]
molecule = "COc1cc(Nc2ncnc(N3CCC(O)CC3)n2)cc(OC)c1OC [Compound 208]"
value_observed = "< 4.90"

[[record]]
molecule = "COc1cc(Nc2ncnc(Nc3ccc(C)cc3)n2)cc(OC)c1OC [Compound 930]"
value_observed = "> 5.96"


Form: Entry = COc1cc(Nc2ncnc(Nc3cccc(C)c3)n2)cc(OC)c1OC [Compound 64] | System = EGFR (Homo sapiens, UniProt P00533) | pIC50 = ____
> 5.96

Then what about the molecule COc1cc(Nc2ncnc(Nc3ccc(F)c(Cl)c3)n2)cc(OC)c1OC [Compound 61] ?
> 6.01

Then what about the molecule O=c1[nH]c2ccccc2n1-c1ncnc(Nc2ccc(Cl)cc2Cl)n1 [Compound 504] ?
< 4.92
